Hello, the source for this data is ChEMBL document CHEMBL3621103, in case you need it.

- TARGET DESC: Vitamin D3 receptor (Homo sapiens)
- Sequence (P11473 whole entry): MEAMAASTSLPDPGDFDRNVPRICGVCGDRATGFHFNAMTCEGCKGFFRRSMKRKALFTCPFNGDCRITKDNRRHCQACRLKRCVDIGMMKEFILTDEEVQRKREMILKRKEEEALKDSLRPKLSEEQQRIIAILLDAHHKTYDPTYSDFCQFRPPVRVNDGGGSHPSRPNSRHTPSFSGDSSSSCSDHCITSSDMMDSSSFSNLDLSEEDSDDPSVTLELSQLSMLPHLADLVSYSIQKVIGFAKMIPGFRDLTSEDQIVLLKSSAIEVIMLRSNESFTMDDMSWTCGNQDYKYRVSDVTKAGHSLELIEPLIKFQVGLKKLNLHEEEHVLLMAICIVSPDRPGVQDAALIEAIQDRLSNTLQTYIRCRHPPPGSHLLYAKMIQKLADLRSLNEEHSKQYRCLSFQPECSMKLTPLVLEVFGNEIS
- ASSAY OVERVIEW: Transactivation of VDR in human HaCaT cells after 24 hrs by luciferase reporter gene assay
- Assay type: cell-based
The following molecules are listed with their measured EC50 values.
Give a bare numeral; the unit nM is implied.

Examples from the recorded data:
>>> recorded_result("C=C1/C(=C\\C=C2/CCC[C@]3(C)[C@@H]([C@H](C)OCCC(C)(C)O)CC[C@@H]23)C[C@@H](O)C[C@@H]1O")
37.9
>>> recorded_result("C=C1/C(=C\\C=C2/CCC[C@@]3(C)[C@H]2CC[C@@H]3[C@@](C)(O)CC[C@H](O)C(C)C)C[C@@H](O)C[C@@H]1O")
271

Q: Quickly give me recorded EC50 for C=C1/C(=C\C=C2/CCC[C@@]3(C)[C@H]2CC[C@@H]3[C@@](C)(O)CC[C@@H](O)C(C)C)C[C@@H](O)C[C@@H]1O
A: 64.9

---

The following compounds are listed with their measured EC50 values.
- TARGET DESC: Vitamin D3 receptor (Homo sapiens, UniProt P11473)
- Sequence (P11473 whole entry): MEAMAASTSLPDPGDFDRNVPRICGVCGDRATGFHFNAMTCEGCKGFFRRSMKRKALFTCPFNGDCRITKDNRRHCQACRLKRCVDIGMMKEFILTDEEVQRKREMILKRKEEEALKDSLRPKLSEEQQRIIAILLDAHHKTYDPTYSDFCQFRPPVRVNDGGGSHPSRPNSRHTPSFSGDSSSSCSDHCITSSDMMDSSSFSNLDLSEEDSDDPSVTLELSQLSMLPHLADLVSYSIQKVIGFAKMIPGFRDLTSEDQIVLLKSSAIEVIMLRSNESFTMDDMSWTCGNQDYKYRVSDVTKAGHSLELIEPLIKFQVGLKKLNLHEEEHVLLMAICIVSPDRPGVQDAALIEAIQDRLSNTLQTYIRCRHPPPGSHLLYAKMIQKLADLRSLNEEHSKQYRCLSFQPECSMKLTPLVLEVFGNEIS
- ASSAY OVERVIEW: Transactivation of VDR in human Caco2 cells after 24 hrs by luciferase reporter gene assay
- Format: cell-based, Caco-2
Give a bare numeral; the unit µM is implied.

>>> recorded_result("C=C1/C(=C\\C=C2/CCC[C@@]3(C)[C@H]2CC[C@@H]3[C@@](C)(O)CC[C@@H](O)C(C)C)C[C@@H](O)C[C@@H]1O")
0.0669
>>> recorded_result("C=C1/C(=C\\C=C2/CCC[C@@]3(C)[C@H]2CC[C@@H]3[C@@](C)(O)CC[C@H](O)C(C)C)C[C@@H](O)C[C@@H]1O")
0.208

Note: attention shifts to another entry.
Q: Quickly give me recorded EC50 for C=C1/C(=C\C=C2/CCC[C@]3(C)[C@@H]([C@H](C)OCCC(C)(C)O)CC[C@@H]23)C[C@@H](O)C[C@@H]1O
A: 0.0408
